Tested on: MS2 coat protein
measurementDescription: apparent KD of MS2 coat protein; designed switch direction (-1 OFF switch, 1 ON switch): 1; higher = weaker reporter binding
settings: Eterna round: R98; input ligand: FMN 200 uM
metricName: apparent KD of MS2 coat protein
Please provide the amount together with its unit, number first.

Some sequences with recorded apparent KD of MS2 coat protein:
UGGAUGGUAUGAGGAUAUGCGCGCGAAACGCGCGCAGAAGGCAUGUCAAUAGACAUGAGGAUCACCCAUGUAUUAUCCAUCCAA [MatMod 9 - Jieux - Same State NG 1] | 39.4 nM
CUGCAAUUCUUAGGAUAUGCUCAGGAUAACUGAGCAGAAGGAAGAUAUACCUGAGGAUCACCCAGGUUAAACUGGAGCAGAAUA [Same State NG1 - A3C, U17G Submission 8B] | 33.6 nM
AAAACAUGAGGAUCACCCAUGUAAAGUUCGGAAAGUUAGAGUGAGGAUAUACAAAUUUUUAUUUAGUAGAAGGCACUGGGUACA [JR_SSNG3_Sub032Nu] | 24.8 nM

Fill in the blank: the reported apparent KD of MS2 coat protein of AAGAUACUUACAGGAUAUAGGGCAGAGGGUGCCCUAGAAGGGUGAACAUGAGGAUCACCCAUGUAUGUAUCAGAUUAGAAGGCA [Inleesti] is ____.
63.4 nM

Same read-out for GGAUCCAUCACAGGAUAUGCUGGACUUUGUCCAGCAGAAGGGUGACAUGAGGAUCACCCAUGUACAAAGGAUCCUAUAUUUAAU [Denovo 28] ?
45.2 nM

Item: GGACGUCACAUUAACAUGAGGAUCACCCAUGUCAAAAGACAUGAGGAUAUGGAUCCUAAUUGGAUCCAGAAGGCAUGGACGUCC [EliMod 1 - Jieux - Same State NG 3]
38.9 nM
